PROTOCOL NOTES: qHTS for Inhibitors of human tyrosyl-DNA phosphodiesterase 1 (TDP1): qHTS in cells in absence of CPT; note: nearly all actives have a fitted effect of over 55% in size
CONDITION LABEL: DT40 Tdp1-/- hTDP1 cells, no CPT, ATP luminescence, 48 h
The whole screen tested about 420,000 compounds, of which about 64,000 (15%) were called active. Inconclusive results (about 27%) are left out. Calls come from the whole dose curve; as a rule, active = well fitted inhibition curve with a large enough effect; inconclusive = small, poorly fitted or top-dose-only effect; inactive = flat fitted curve, though single readings scatter. The list is a sample of the results.
I would appreciate it if you answered using one of these outcomes: True for active, False for inactive

Cc1cc(C)c(S(=O)(=O)N(C)CC(=O)NCC2CCCO2)c(C)c1 (stereo unspecified); False
COc1ccccc1N1CCN(C(=O)C(=O)N/N=C/c2ccccc2F)CC1; False
Cc1c(S(=O)(=O)N2CC(C)CC(C)C2)c(=O)n(C)c(=O)n1C (stereo unspecified); False

Query: Test call, this molecule: O=C(Nc1ccc(Cl)cc1)c1cnn2c1NC(=C1CC1)C=C2C(F)F
Reply: False

Query: Test call, this molecule: COc1ccc(C)cc1S(=O)(=O)N1CCN(S(=O)(=O)c2cc(C(=O)O)ccc2C)CC1
Reply: False

Query: Test call, this molecule: CCOC(=O)N1CCC(=NNC(N)=O)CC1
Reply: False

Query: Test call, this molecule: COc1ccc(S(=O)(=O)Nc2ccc(S(=O)(=O)N3CCCCC3)cc2)cc1OC
Reply: False

Query: Test call, this molecule: CCOC(=O)C1CCN(S(=O)(=O)c2cc(F)ccc2OC)CC1
Reply: False

Query: Test call, this molecule: O=C(Nc1ccc(-c2ccc3nncn3n2)cc1)C1CCCCC1
Reply: True

Query: Test call, this molecule: CC(C)(C)NC(=O)NC(=O)COC(=O)C1c2ccccc2Oc2ccccc21
Reply: False

Query: Test call, this molecule: Cc1ccc(C)c(NC(=O)CSc2nnc(Cc3cccn3C)n2-c2ccc(F)cc2)c1
Reply: False
